- Experiment: NCI Yeast Anticancer Drug Screen. Data for the mlh1 rad18 strain (AID 175)
- Condition details: S. cerevisiae mlh1 rad18 strain growth inhibition; at 50.0 µM; stronger effect = higher value
About 79,000 compounds went through this panel and 15% of them were active in at least one assay; those are over-represented in the sample as a whole.
Label 1 for high-side growth inhibition (at or above 90%) and -1 for low-side growth inhibition (below it).

# example entries with known answers
Compound	Category label
CC(C)C(=O)/C=C/c1c(Cl)cccc1Cl	-1
CCNC(=S)NC1CCCCCCCCCCC1	-1
CCn1c(=O)cc2n(C)c3ccccc3n2c1=O	-1

Decide: is the reported value of growth inhibition for Cc1nn(CCO)c(=O)c(C#N)c1C equal to or greater than 90%?
-1

Field entry: COc1ccc(CN2C(=O)C(Cl)=C(Cl)C2=O)c(OC)c1
1

Field entry: CNC1c2ccccc2C(=O)c2cc3c(cc21)OCCOCCOCCOCCO3 (stereo unspecified)
-1

###

- Experiment: NCI Yeast Anticancer Drug Screen. Data for the rad50 strain (AID 155);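 also: 0% = growth of vehicle-only cultures of the same strain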
- Condition details: S. cerevisiae rad50 strain growth inhibition; at 50.0 µM
About 79,000 compounds went through this panel and 15% of them were active in at least one assay; those are over-represented in the sample as a whole. The source made the active and inactive calls. Rule as the data show it: active = growth inhibition above about 70%; inactive = the rest.
Answer with one of the outcomes given here: active, inactive

# example entries with known answers
Compound	Category label
O=C1/C(=C/c2ccccc2)CNC/C1=C\c1ccccc1	active
Clc1cc[c]([Sn]([O][Sn]([c]2ccc(Cl)cc2)([c]2ccc(Cl)cc2)[c]2ccc(Cl)cc2)([c]2ccc(Cl)cc2)[c]2ccc(Cl)cc2)cc1	active
[N-]=[N+]=Nc1c(-c2ccccc2)c(=O)n(-c2ccccc2)c2ccccc12	active

Would you mind telling me which call this test gave C#CCCOC(=O)CC1=C(C)/C(=C/c2ccc(S(C)=O)cc2)c2ccc(F)cc21 (stereo not given) ?
active

Field entry: O=S(=O)(Nc1ccccc1-c1ccc(Cl)cc1)c1ccccc1
active

###

- Experiment: NCI Yeast Anticancer Drug Screen. Data for the mec2-1 strain (AID 157)
- Condition details: S. cerevisiae mec2-1 strain, at 5.0 µM (retest, dose inferred, filed as 0.5), stronger effect = higher value
Compounds without any hit were thinned out: in the full panel of roughly 79,000, 15% have a hit.
Label yes (1) for high-side growth inhibition (at or above 8%) and no (0) for low-side growth inhibition (below it).

# example entries with known answers
Smiles str	Category label
Cn1c(=O)c2c(ncn2CCCCOc2ccc3c(c2)[n+]([O-])nc(N)[n+]3[O-])n(C)c1=O	yes (1)
O=C(Nc1ccccc1)O/N=C1/CCCC/C1=C\c1ccccc1	yes (1)
O=c1cccccc1[O-].O=c1cccccc1[O-].O=c1cccccc1[O-].[La+3]	yes (1)

Decide: is the reported value of growth inhibition for CCOC(=O)C1=C(N)N(S(=O)(=O)c2ccc(C)cc2)CCC(C(=O)OC)=C1 equal to or greater than 8%?
no (0)

###

- Experiment: NCI Yeast Anticancer Drug Screen. Data for the cln2 rad14 strain (AID 165);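 also: 0% = growth equal to vehicle treated cultures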
- Condition details: S. cerevisiae cln2 rad14 strain, at 50.0 µM (retest, dose inferred, filed as 5.0)
The panel holds about 79,000 compounds, 15% with a hit somewhere; the sample as a whole holds those more often. The source made the active and inactive calls. Rule as the data show it: active = growth inhibition above about 70%; inactive = the rest.
Answer with one of the outcomes given here: active, inactive

Compound	Category label
Oc1ccccc1/C=N\N=C\c1ccccc1O	inactive
CCCCCCCCCCCC(N)c1ccccc1 (configuration not stated)	active
CC1(C)CC(=N/O)/C(=N/O)C(=N\NC(N)=S)/C1	inactive

Would you mind telling me which call this test gave CCCCCNC(=O)C1C(=O)N(CCCCC)C(=O)/C1=N\N (configuration not stated) ?
inactive

Field entry: O=S(=O)(c1cc(Cl)c(Cl)cc1Cl)N(CCCCCN(S(=O)(=O)c1cc(Cl)c(Cl)cc1Cl)S(=O)(=O)c1cc(Cl)c(Cl)cc1Cl)S(=O)(=O)c1cc(Cl)c(Cl)cc1Cl
inactive

Field entry: CCC(CC)C1(C(=O)OCCN(CC)CC)CCCCC1
inactive

Field entry: c1ccc2c(c1)Nc1ccc3ccccc3c1S2
inactive

Field entry: Cc1cc(=O)[nH]c(NN2C(Cl)C(=O)C2c2ccc(O)cc2)n1 (configuration not stated)
inactive

Field entry: CC(CCC(=O)O)(c1cc(Br)c(O)c(Br)c1)c1cc(Br)c(O)c(Br)c1
active

###

growth inhibition values for the compounds below.
- Experiment: NCI Yeast Anticancer Drug Screen. Data for the mec2-1 strain (AID 157)
- Condition details: S. cerevisiae mec2-1 strain, at 50.0 µM, stronger effect = higher value
The panel holds about 79,000 compounds, 15% with a hit somewhere; the sample as a whole holds those more often.
Note: unit % is implicit; provide only the numeric part.

Worked set:
Compound	growth inhibition, %
Clc1cc[c]([Sn]([Cl])([O][Sn]([Cl])([c]2ccc(Cl)cc2)[c]2ccc(Cl)cc2)[c]2ccc(Cl)cc2)cc1	88.5
Oc1c(Cl)cc(Cl)cc1C=NCCSc1ccc(Cl)cc1	93.8
Cc1ccc(C(=O)OCC(C)C)cc1N=NN(C)C	19.9
CN(C)C(=S)SN(C)C(=O)Nc1ccccc1	73
O=C(Nc1cccnc1)c1ccc(CSc2ccc(Cl)cc2)o1	92.3

Consider the compound CC(C)(C)C(=O)CC(Cc1nccc2ccccc12)c1ccco1 (configuration not stated) and give its measured growth inhibition.
99.2

Field entry: Cc1cc(NC(=S)SCc2ccc(Cl)cc2)ccc1F
96

Field entry: Cc1cccc(/C=N\OCCc2ccccc2)n1
80.2

###

- Experiment: NCI Yeast Anticancer Drug Screen. Data for the mlh1 rad18 strain (AID 175)
- Condition details: S. cerevisiae mlh1 rad18 strain growth inhibition; at 5.0 µM (retest, dose inferred, filed as 0.5)
This is part of a sample that, as a whole, favours compounds with a hit. Of some 79,000 tested, about 15% had one in any assay. Active and inactive are the calls of the source. No stated cut-off is given here; in the data, active means growth inhibition above about 70%; inactive means the rest.
Answer with one of the outcomes given here: yes (1) = active, no (0) = inactive

Compound	Category label
O=c1oc(-c2cc([N+](=O)[O-])cc([N+](=O)[O-])c2Cl)nc2ccccc12	no (0)
CCOC(=O)CN1C(=O)S/C(=C/c2ccc([N+](=O)[O-])o2)C1=O	no (0)
CCOC(CC)C(O)(c1ccc(N(C)C)cc1)c1ccc(N(C)C)cc1 (stereo not given)	no (0)
CCCCCCCCCCNC(=O)C[n+]1cccc(C(=O)NCc2ccccc2)c1	no (0)
CC(C)(C)c1cc(C(c2cc3c(cc2O)OCO3)N2CCOCC2)cc(C(C)(C)C)c1O (stereo not given)	no (0)
CC1=C(C(=O)OCCO[N+](=O)[O-])C(c2ccccc2[N+](=O)[O-])C(C(=O)OC(C)C)=C(C)N1 (stereo not given)	no (0)

Would you mind telling me which call this test gave CN(C)c1ccc(/C=C/c2nc3ccccc3[nH]2)cc1 ?
no (0)

Field entry: CC(C)(C)CCCC(C(=O)O)c1ccccc1 (stereo not given)
no (0)

Field entry: CCCCCCCC/C=C\CCCCCCCC(=O)NCCN(C)C
no (0)

Field entry: O=C1C(Cl)=C(c2ccc([N+](=O)[O-])cc2)C(=O)c2c(O)cccc21
yes (1)

###

- Experiment: NCI Yeast Anticancer Drug Screen. Data for the bub3 strain (AID 167)
- Condition details: S. cerevisiae bub3 mutant strain, at 50.0 µM
Compounds without any hit were thinned out: in the full panel of roughly 79,000, 15% have a hit. Activity calls are given as the source filed them. Rule as the data show it: active = growth inhibition above about 70%; inactive = the rest.
Answer with one of the outcomes given here: 1 for active, 0 for inactive

Compound	Category label
C=CS(=O)(=O)Cc1ccc(Cl)cc1	1
COc1cc(CNc2nc3ccccc3nc2-c2cccs2)cc(OC)c1OC	0
CCCCOC(c1ccccc1)N1CCCCC1 (stereo not drawn)	0
COc1ccc(NS(=O)(=O)c2ccc(F)cc2)cc1	1

Attention now shifts to the item below.
Would you mind telling me which call this test gave COc1ccc(C2=C(Cl)C(=O)N(c3ccccc3C)C(=O)C2(Cl)Cl)cc1 ?
1

###

- Experiment: NCI Yeast Anticancer Drug Screen. Data for the cln2 rad14 strain (AID 165);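 also: 0% = growth equal to vehicle treated cultures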
- Condition details: S. cerevisiae cln2 rad14 strain, at 50.0 µM (retest, dose inferred, filed as 5.0), stronger effect = higher value
This is part of a sample that, as a whole, favours compounds with a hit. Of some 79,000 tested, about 15% had one in any assay.
Measured parameter: growth inhibition (%)
Note: unit % is implicit; provide only the numeric part.

Worked set:
Compound	Result unit	growth inhibition
CC(=O)O[C@@H]1CO[C@H]2O[C@H]3[C@@H](C(C=O)=C[C@H](O)[C@@H]4C5=C(C(C)C)CC[C@]5(C)CC[C@@]34C)[C@@]2(O)C1=O	%	98
CCCCCCCCCCCC(=O)OCC1CO1 (stereo unspecified)	%	-55
O=C1C=CC(=O)c2nc3c(nc21)[nH]c1ccccc13	%	94
COc1ccc(C(O)(c2ccccc2)c2ccccc2)cc1	%	92
c1ccc(OCCCOc2ccccc2)cc1	%	-9
O=Cc1ccc2c(c1)CC1(C2)Cc2ccc3c(c2C1)CCC3 (stereo unspecified)	%	41
Cc1ccc(S(=O)(=O)Nn2c(S)c(C#N)c(-c3ccc(Cl)cc3)c(C#N)c2=O)cc1	%	56
CC(=O)N(C1=C(Cl)C(=O)c2ccccc2C1=O)c1ccc(F)cc1	%	98
COc1ccc2[nH]c3ccc4cc[n+](CCN5CCC(C6CCN(CC[n+]7ccc8ccc9[nH]c%10ccc(OC)cc%10c9c8c7)CC6)CC5)cc4c3c2c1	%	96
Cc1[nH]c2ccccc2c1C(C)CC(O)c1ccccc1 (stereo unspecified)	%	29

Turning to the following compound.
Consider the compound O=C1c2ccccc2Cc2cc(O)ccc21 and give its measured growth inhibition.
88
